Hello, the source for this data is patent US10668032B2, in case you need it.

Assay: Plasma pharmacokinetics of lithium after oral gavage (ICP-MS)
Details: read-out: Cmax of lithium, rat, single oral gavage, NaBen 287.9 mg/kg + Li2CO3 74.2 mg/kg or LiBen 255.3 mg/kg
metric: Cmax (µM)
Give bare numbers, in µM.

Retrieve Cmax measured for O=C([O-])c1ccccc1.[Li+] [lithium benzoate] and print it.
1720
